Cited source for all entries: patent US11845760B2

log10 of IC50 values by entry
Test system: HCT116 MTAP null cells
procedure.summary: HCT116 MTAP null cell line proliferation (CellTiter-Glo cell viability, 6 days)
Assay type: cell-based
test.context: HCT116-MTAP null, 144 h, HCT116 MTAP null cells, 6 days of treatment, CellTiter-Glo cell viability; read-out: HCT-116 MTAP null IC50
test.readout: log10 of IC50 (log10 of the value in nM)

>>> numeric_readout("Cc1n[nH]c2c1c(N)nc1cnc(C(=O)N3CCOC[C@@H]3c3ccc(C(F)(F)F)cc3)cc12 [Example 406]")
2.19
>>> numeric_readout("Cn1ncc2c3cc(C(=O)N4CCOC[C@@H]4c4ccc(C(F)(F)F)cc4)ccc3nc(N)c21 (single isomer, unassigned) [Example 584]")
2.37
>>> numeric_readout("C[C@H]1OCc2c1c(N)nc1cnc(C(=O)N3CCOC[C@@H]3c3ccc(C(F)(F)C(F)(F)F)cc3)cc21 (single isomer, unassigned) [Example 454]")
1.38
>>> numeric_readout("Cn1ncc2c(N)nc3ccc(C(=O)N4CCOC[C@@H]4c4ccc(C(F)(F)C(F)(F)F)cc4)cc3c21 [Example 409]")
1.46
>>> numeric_readout("C[C@@H]1COC[C@H](c2ccc(C(F)(F)F)nc2)N1C(=O)c1cc2c3c(c(N)nc2cn1)COC3 [Example 524]")
1.49
>>> numeric_readout("C[C@H]1OCc2c1c(N)nc1ccc(C(=O)N3[C@@H](C)COC[C@H]3c3ccc(Cl)nc3)cc21 (racemic) [Example 312]")
1.85
>>> numeric_readout("Cn1ncc2c(N)nc3cc(F)c(C(=O)N4CC[C@H](Oc5ccc(C(F)(F)F)cc5)C4)cc3c21 (single isomer, unassigned) [Example 472]")
2.28
>>> numeric_readout("CCOc1ccc(C2COCCN2C(=O)c2cc3c4c(c(N)nc3cc2F)COC4)nn1 (racemic) [Example 392]")
2.33
>>> numeric_readout("Nc1nc2cnc(C(=O)N3CCNC[C@@H]3c3ccc(C(F)(F)F)cc3)cc2c2c1COC2 (single isomer, unassigned) [Example 596]")
2.76
>>> numeric_readout("Cn1ncc2c(N)nc3cc(F)c(C(=O)N4CCOC[C@@H]4c4ccc(OC(F)F)nn4)cc3c21 [Example 556]")
1.59
>>> numeric_readout("Nc1nc2ccc(C(=O)N3CCOC[C@@H]3c3ccc(C(F)(F)F)nn3)cc2c2c1COC2 (single isomer, unassigned) [Example 593]")
2.97
>>> numeric_readout("C[C@H]1OCc2c1c(N)nc1ccc(C(=O)N3CCOC[C@@H]3c3ccc(C(F)(F)C(F)(F)F)cc3)cc21 [Example 336]")
1.59
>>> numeric_readout("COc1ccc([C@H]2COC[C@@H](C)N2C(=O)c2cc3c4c(c(N)nc3cc2F)[C@@H](C)OC4)nn1 [Example 552]")
1.11
>>> numeric_readout("C[C@H]1OCc2c1c(N)nc1cnc(C(=O)N3CCOC[C@H]3c3ccc(F)c(OC(F)(F)F)c3)cc21 (racemic) [Example 358]")
2.50
>>> numeric_readout("C[C@H]1COC[C@@H](c2ccc(C(F)(F)F)nc2)N1C(=O)c1ccc2nc(N)c3c(c2c1)COC3 (racemic) [Example 303]")
2.13
>>> numeric_readout("N#Cc1ccc(C2COCCN2C(=O)c2cc3c4c(c(N)nc3cn2)COC4)cc1 (racemic) [Example 388]")
2.92
>>> numeric_readout("C[C@@H]1COC[C@H](c2ccc(C(F)(F)F)cc2)N1C(=O)c1cc2c3c(c(N)nc2cc1F)COC3 [Example 526]")
0.78
>>> numeric_readout("C[C@H]1OCc2c1c(N)nc1cnc(C(=O)N3CCOC[C@@H]3c3ccc(C(F)(F)F)cc3)cc21 (single isomer, unassigned) [Example 452]")
1.69
>>> numeric_readout("C[C@@H]1COC[C@H](c2cc(F)cc(F)c2)N1C(=O)c1cc2c3c(c(N)nc2cn1)[C@@H](C)OC3 (racemic) [Example 324]")
2.27
>>> numeric_readout("C[C@H]1OCc2c1c(N)nc1cnc(C(=O)N3CCOC[C@@H]3c3ccc(S(F)(F)(F)(F)F)cc3)cc21 [Example 417]")
1.23
>>> numeric_readout("COc1ccc([C@H]2COC[C@@H](C)N2C(=O)c2cc3c4c(c(N)nc3cc2F)COC4)nn1 [Example 540]")
1.28
>>> numeric_readout("Nc1nc2cnc(C(=O)N3CCOCC3c3ccc(C(F)(F)F)cn3)cc2c2c1COC2 (racemic) [Example 494]")
2.55
>>> numeric_readout("Cn1ncc2c3cc(C(=O)N4CCOCC4c4ccc(C(F)(F)F)cc4)ccc3nc(N)c21 (racemic) [Example 497]")
2.68
>>> numeric_readout("COc1ccc([C@H]2COC[C@@H](C)N2C(=O)c2ccc3nc(N)c4c(cnn4C)c3c2)nn1 [Example 538]")
2.45
